These entries and their values trace back to patent US20260242343A1.

Biological target: DDR1 kinase in DDR1-expressing U2OS cells (Homo sapiens)
Assay: DDR1 kinase inhibitory effect in DDR1-expressing U2OS cells (PathHunter, type I collagen stimulation)
Conditions: type I collagen 50 μg/mL, 10% FBS, read-out: DDR-1 IC50
Procedure: Test compounds in DMSO were prepared at 10 mM and diluted with DMSO to final concentrations of 1000, 100, 10, 1, and 0.1 μM. These solutions were diluted further with E-MEM medium (Fujifilm Wako Pure Chemical Industries, 051-07615) containing 10% fetal bovine serum (FBS, Gibco, 10270106) to 60,000, 6,000, 600, 60, 6, and 0.6 nM to obtain test sample solutions. […]
measured-property: IC50 (nM)

A: CCc1ccc(C(=O)N[C@H](CO)CCOC(F)(F)F)cc1NC(=O)c1cncc(-c2cccc(F)c2)c1
B: Nc1ncc(C#Cc2cc(C(=O)N[C@H]3C[C@H](OC(F)(F)F)C[C@@H]3O)ccc2OC(F)F)cn1
C: Cn1cc(C#Cc2cc(C(=O)N[C@H](CO)CCOC(F)(F)F)ccc2OC(F)F)cn1
Problem: Sort by IC50, descending. Please respond with the labels ordered as the question requires.
Result: C, A, B

----------
target: DDR1 kinase in DDR1-expressing U2OS cells (Homo sapiens, UniProt Q08345); test: DDR1 kinase inhibitory effect in DDR1-expressing U2OS cells (PathHunter, type I collagen stimulation); settings: type I collagen 50 μg/mL, 10% FBS, read-out: DDR-1 IC50
Sequence (Q08345 19-913): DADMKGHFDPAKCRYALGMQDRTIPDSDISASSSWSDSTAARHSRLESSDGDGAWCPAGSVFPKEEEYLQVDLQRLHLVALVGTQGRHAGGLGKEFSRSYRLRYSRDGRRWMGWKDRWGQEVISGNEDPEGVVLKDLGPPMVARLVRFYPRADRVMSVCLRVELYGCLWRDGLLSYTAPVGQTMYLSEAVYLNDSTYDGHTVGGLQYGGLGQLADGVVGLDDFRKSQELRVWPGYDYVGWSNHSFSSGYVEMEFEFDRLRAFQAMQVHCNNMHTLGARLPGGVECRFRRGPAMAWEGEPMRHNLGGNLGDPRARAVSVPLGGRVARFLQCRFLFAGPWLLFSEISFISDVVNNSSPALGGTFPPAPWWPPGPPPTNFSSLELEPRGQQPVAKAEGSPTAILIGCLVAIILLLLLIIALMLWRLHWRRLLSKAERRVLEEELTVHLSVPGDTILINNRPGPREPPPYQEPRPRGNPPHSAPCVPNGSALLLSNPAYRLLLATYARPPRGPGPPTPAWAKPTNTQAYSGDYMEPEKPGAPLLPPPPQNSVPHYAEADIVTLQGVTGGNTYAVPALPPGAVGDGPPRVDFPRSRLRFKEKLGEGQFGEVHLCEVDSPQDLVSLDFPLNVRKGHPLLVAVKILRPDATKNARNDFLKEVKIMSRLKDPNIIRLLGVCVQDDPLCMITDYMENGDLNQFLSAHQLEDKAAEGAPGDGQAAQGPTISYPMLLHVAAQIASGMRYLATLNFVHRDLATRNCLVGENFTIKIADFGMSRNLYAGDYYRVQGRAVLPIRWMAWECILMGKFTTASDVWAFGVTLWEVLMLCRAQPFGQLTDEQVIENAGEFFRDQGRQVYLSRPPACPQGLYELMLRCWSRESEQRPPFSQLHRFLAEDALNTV
pIC50: −log10 of the molar value.
measured-property: pIC50

// below: answered compounds
Nc1cnc(/C(F)=C/c2cc(C(=O)N[C@H]3CC4(CC4)C[C@@H]3O)ccc2OC(F)F)cn1 = 7.70
Nc1cnc(C#Cc2cc(C(=O)N[C@H](CO)CCOC(F)(F)F)ccc2OC(F)F)cn1 = 7.30
Nc1ncc(C#Cc2cc(C(=O)N[C@H]3CC(F)(F)CC[C@@H]3O)ccc2OC(F)F)cn1 [Example 20, p-toluenesulfonate] = 7.80
NC(=O)c1ncc2cc(-c3cc(C(=O)N[C@H]4CC(F)(F)CC[C@@H]4O)ccc3C(F)(F)F)ccn12 = 8.00
O=C(N[C@H]1C[C@H](OC(F)(F)F)C[C@@H]1O)c1ccc(OC(F)F)c(C#Cc2cncc(F)c2)c1 = 7.42

I: CCc1ccc(C(=O)N[C@H](CO)CCOC(F)(F)F)cc1NC(=O)c1cncc(OCC2CC2)c1
II: NC(=O)c1ncc2cc(-c3cc(C(=O)N[C@H](CO)CCOC(F)(F)F)ccc3C(F)(F)F)ccn12
Problem: # argmax over pIC50 for candidates I and II To answer, give the label that identifies your chosen option.
Result: II
(II: 8.28, I: 6.62)
